Numbers sourced from paper PMC4360782.

system.under.test: T1, TerR35-138 (Aspergillus terreus SBUG844, UniProt Q0D1P5 35-138)
T1 sequence: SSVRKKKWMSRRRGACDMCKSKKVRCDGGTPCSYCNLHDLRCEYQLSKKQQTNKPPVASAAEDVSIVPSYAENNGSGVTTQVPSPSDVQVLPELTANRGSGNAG
assay.summary: SPR; molar ratio 1.25; SPR (Biacore 2000, SA-coated CM3 chip): 10 mM HEPES pH 7.4, 150 mM NaCl, 0.005% P20, 5 mM beta-mercaptoethanol, 1 uM ZnCl2, 25 C; protein 12.5-6400 nM; 1:1 model with mass transport
run.parameters: protein: recombinant; (pET-29a; theoretical mass 11.35 kDa); label: biotin on one strand; 18 bp duplex
parameter: Kd (nM)
API: value field is a number in nM; no unit string.

Answer with reported Kd of BS7 (dsDNA) DNA 1: ACTTCGGCTATCCGGTTA DNA 2: TAACCGGATAGCCGAAGT
26.5
